Data provenance is the OPERA property sets (Mansouri et al. 2018).

melting point below 100 °C gives -1; melting point at or above it gives 1.

TEST_SMILES	QUALITATIVE_LABEL
COC(=O)CCCCC(=O)OC	-1
COc1ccccc1NC(C)=O	-1
CNNC	-1
c1ccc2cc3c4ccccc4c4ccccc4c3cc2c1	1
C=C(C)CCC=C(C)C	-1
CC(C)c1ccc(Br)cc1	-1
Oc1cc2ccccc2cc1O	1
O=C(O)Cc1cccc2ccccc12	1

====

QUANTITY_NAME: ready biodegradability

COMPOUND	QUANTITY_NAME	RECORDED_MEASUREMENT
CCCCCN	ready biodegradability	readily biodegradable
Cc1ccccc1OP(=O)(Oc1ccccc1C)Oc1ccccc1C	ready biodegradability	readily biodegradable
CC(=O)Oc1cccnc1	ready biodegradability	readily biodegradable
CC(=O)Oc1ccccc1C(=O)O	ready biodegradability	readily biodegradable
CC(=O)Nc1ccc(O)cc1	ready biodegradability	readily biodegradable
CC(C)C(=O)OCC(C)(C)C(O)C(C)C (configuration not stated)	ready biodegradability	readily biodegradable
CCc1cccc(O)c1	ready biodegradability	readily biodegradable
CCCCCCCCCCCCCCCCCCCCCCCCCCCCCCCCCCCCCCCC	ready biodegradability	readily biodegradable
CCC(CC)C(=O)OCCOCCOCCOC(=O)C(CC)CC	ready biodegradability	readily biodegradable
Nc1ccc(C(=O)O)cc1	ready biodegradability	readily biodegradable
O=CC(=O)O	ready biodegradability	readily biodegradable

====

log10 vapour pressure (mmHg) below -4 gives Not satisfied; log10 vapour pressure (mmHg) at or above it gives Satisfied.

MOLECULE	QUALITATIVE_LABEL
CC(=O)OCCc1ccccc1	Satisfied
Brc1cc2c(cc1Br)Oc1cc(Br)c(Br)cc1O2	Not satisfied
Oc1ccc(Cl)cc1	Satisfied
NCCN	Satisfied
COC(=O)CCl	Satisfied
CCSC(=O)N1CCCCCC1	Satisfied
COC(=O)c1ccccc1CS(=O)(=O)NC(=O)Nc1nc(OC)cc(OC)n1	Not satisfied
CCN(CC)c1ccccc1	Satisfied
CC(C)C(C)C	Satisfied
OCC(O)CO	Satisfied
CC(C)OC(=O)C(C)C	Satisfied
O=C1c2ccccc2C(=O)c2c1ccc([N+](=O)[O-])c2[N+](=O)[O-]	Not satisfied
C[Si](Cl)(Cl)Cl	Satisfied
O=C1c2ccccc2C(=O)C1C(=O)C(c1ccccc1)c1ccc(Cl)cc1 (stereo not given)	Not satisfied
C1CCSC1	Satisfied
CCCCOC(=O)c1ccccc1C(=O)OCCCC	Not satisfied
OC(CCl)CCl	Satisfied
CC#Cc1cc(C)nc(Nc2ccccc2)n1	Not satisfied
Cc1ccccc1C#N	Satisfied
CCCCCCCC/C=C\CCCCCCCCCCCCC	Not satisfied
CON(C)C(=O)Nc1ccc(Br)c(Cl)c1	Not satisfied
Clc1cccc(-c2cccc(Cl)c2Cl)c1Cl	Not satisfied
c1ccc2c(c1)CCc1ccccc1-2	Satisfied
BrCCc1ccccc1	Satisfied
CCCSP(=O)(OCC)SCCC	Satisfied
COc1ccsc1CN(C(=O)CCl)c1c(C)cccc1C	Not satisfied
O=C1c2ccccc2C(=O)c2c(O)ccc(O)c21	Not satisfied
COC(F)(F)C(F)(F)F	Satisfied
ClC=C(Cl)CCl	Satisfied
O=C1/C(=C2\Nc3c(Br)cc(Br)cc3C2=O)Nc2c(Br)cc(Br)cc21	Not satisfied
CC[C@@H]1CCC[C@H]1C	Satisfied
C=CC(C)Cl (stereo not given)	Satisfied
O=CC(Br)(Br)Br	Satisfied
CCNc1ccccc1	Satisfied
CCCCC(C)(C)O	Satisfied
COC(=O)C(C)N(C(=O)Cc1ccccc1)c1c(C)cccc1C (stereo not given)	Not satisfied
Nc1ccccc1	Satisfied
Cc1cccc2cccc(C)c12	Satisfied
O=C1CCc2cccc3c2N1CC3	Not satisfied
Cc1cc(C)c(C)c(O)c1	Satisfied
CCCCC(C=O)CC (stereo not given)	Satisfied
OCc1ccco1	Satisfied
CCOC(=O)CC(=O)c1ccccc1	Satisfied
Cc1nc2ccccc2s1	Satisfied
Clc1nc(Cl)nc(Nc2ccccc2Cl)n1	Not satisfied
CCC1(CC2(c3cccc(Cl)c3)CO2)C(=O)c2ccccc2C1=O (stereo not given)	Not satisfied
CC(=O)Oc1ccc2c3c1O[C@H]1[C@@H](OC(C)=O)C=C[C@H]4[C@@H](C2)N(C)CC[C@@]341	Not satisfied
FCOC(C(F)(F)F)C(F)(F)F	Satisfied
Clc1c(Cl)c(Cl)c2c(c1Cl)Oc1ccccc1O2	Not satisfied
CCCCCC(C)=O	Satisfied
O=C(C=Cc1ccccc1)OCc1ccccc1	Not satisfied
Cc1ccc(C)s1	Satisfied
CCc1cccc(C)c1	Satisfied
COP(=O)(OC)OC	Satisfied
CC(=O)O[C@@H]1CC2CCC1(C)C2(C)C (stereo not given in full)	Satisfied
BrCCCBr	Satisfied
CC(=O)OCC(COC(C)=O)OC(C)=O	Satisfied
C=CCS	Satisfied
C#CCOc1cc(-n2nc(C(C)(C)C)oc2=O)c(Cl)cc1Cl	Not satisfied
OC(O)C(Cl)(Cl)Cl	Satisfied
ClCC(Cl)CCl	Satisfied
CCCCI	Satisfied
O=CCCCC=O	Satisfied
c1ccc(COCc2ccccc2)cc1	Satisfied
O=C1C2(Cl)C3(Cl)C4(Cl)C(Cl)(Cl)C5(Cl)C3(Cl)C1(Cl)C5(Cl)C24Cl (stereo not given)	Not satisfied

====

melting point values for the compounds below.

COMPOUND	melting point (°C)
O=C(OCC1(COC(=O)c2cccnc2)CCCC(COC(=O)c2cccnc2)(COC(=O)c2cccnc2)C1O)c1cccnc1	178
C=CCOc1c(Br)cc(C(C)(C)c2cc(Br)c(OCC=C)c(Br)c2)cc1Br	119
Cc1ccccc1C	-25.2
O=Cc1ccc(Cl)c(Cl)c1	44
C=C[C@](C)(O)CC[C@@H]1[C@@]2(C)CCCC(C)(C)[C@@H]2CC[C@@]1(C)O	97
CC(=O)OCOC(=O)[C@@H]1N2C(=O)[C@@H](NC(=O)Cc3ccccc3)[C@H]2SC1(C)C	107
CCOC(=O)CCCCCBr	33
C[C@@](Cc1ccc(O)c(O)c1)(NN)C(=O)O	208
CCC(C)c1cc([N+](=O)[O-])cc([N+](=O)[O-])c1OC(=O)OC(C)C (configuration not stated)	61
CCOC(=O)C(=Cc1ccccc1)C(=O)OCC	32
CCc1nc2ccccc2[nH]1	175
CCCCN(CC)c1c([N+](=O)[O-])cc(C(F)(F)F)cc1[N+](=O)[O-]	66

====

melting point below 70 °C gives False; melting point at or above it gives True.

COMPOUND	QUALITATIVE_LABEL
CCSCCO	False
CCN1CCN(C(=O)N[C@@H](C(=O)N[C@@H]2C(=O)N3C(C(=O)O)=C(CSc4nnnn4C)CS[C@H]23)c2ccc(O)cc2)C(=O)C1=O	True
CCCCCCCCI	False
C[C@]12CC[C@H]3[C@@H](CCC4=CC(=O)C=C[C@@]43C)[C@@H]1CC[C@H]2O	True
CN(C)C(=O)C(c1ccccc1)c1ccccc1	True
C/C=C/C=C/C(=O)OC	False
N#Cc1c(F)c(F)c(C#N)c(F)c1F	True
C[Si]1(C)N[Si](C)(C)N[Si](C)(C)N[Si](C)(C)N1	True
O=C1CSC(=S)N1c1ccccc1	True
Cc1ccc(CO)cc1	False
Cc1ccc(/C(=C\CN2CCCC2)c2ccccn2)cc1	False
ClCC(Cl)(Cl)Cl	False
Oc1ccc(-c2ccc(O)cc2)cc1	True
CCCCCCCCCCCCCCCCCN	False
CCC1C(C)=NN=C(c2ccc(OC)c(OC)c2)c2cc(OC)c(OC)cc21 (configuration not stated)	True
CCC(=O)c1cc(O)ccc1O	True
CC(C)C[C@@H](NC(=O)[C@@H](O)[C@H](N)Cc1ccccc1)C(=O)O	True
CCN(CC)CC#CCOC(=O)C(O)(c1ccccc1)C1CCCCC1.Cl (configuration not stated)	True
CC(C)(C)C=O	False
COc1ccc(C(C)=O)cc1	False
O[C@H](CS)[C@H](O)CS	False
CC(=O)S[C@H]1CC(=O)C=C2C[C@@H](SC(C)=O)[C@@H]3[C@H](CC[C@@]4(C)[C@H]3CC[C@]4(C)O)[C@]21C	True
CCN(CC)CCOC(=O)[C@@H]1N2C(=O)[C@@H](NC(=O)Cc3ccccc3)[C@H]2SC1(C)C.I	True
Brc1ccc2c(c1)Oc1ccc(Br)cc1O2	True
C#CCO	False
C1CCC(OC2CCCCC2)CC1	False
Clc1cc(Cl)c2nsnc2c1Cl	True
c1ccc2c(c1)oc1ccccc12	True
CC(=O)N(CC(O)CO)c1c(I)c(C(=O)NCC(O)CO)c(I)c(C(=O)NCC(O)CO)c1I (configuration not stated)	True
CC(C)=CCC[C@@H](C)C1=C(O)C(=O)C(C)=CC1=O	True
COB1OB(OC)OB(OC)O1	False
COc1ccc(Cl)cc1C(=O)NCCc1ccc(S(=O)(=O)NC(=O)NC2CCCCC2)cc1	True
OC[C@@H](O)[C@H]1O[C@@H]2O[C@H](C(Cl)(Cl)Cl)O[C@@H]2[C@H]1O	True
CS(=O)(=O)c1ccc([C@@H](O)[C@@H](CO)NC(=O)C(Cl)Cl)cc1	True
O=C1Nc2ccc(Br)cc2C1=O	True
COC(=O)CC(O)(CC(=O)OC)C(=O)OC	True
Oc1ccc(Cc2ccc(O)cc2)cc1	True
CN(C(=O)COc1nc2ccccc2s1)c1ccccc1	True
C[C@H](CN1CCOCC1)C(C(=O)N1CCCC1)(c1ccccc1)c1ccccc1	True
CC(C)(C#N)Nc1nc(Cl)nc(NC2CC2)n1	True
CC[C@H](c1ccc(O)cc1)[C@@H](CC)c1ccc(O)cc1	True
O=C(C=NO)c1ccccc1	True
CC1CCC(C)(C)C1 (configuration not stated)	False
CC(C)(F)F	False
CC(=O)OCCN(CCC#N)c1ccc(N=Nc2nc3ccc([N+](=O)[O-])cc3s2)cc1	True
N#Cc1ccccn1	False
O=C(O)Cc1ccc(-c2ccccc2)cc1	True
COC(=O)[C@H]1[C@H]2C[C@@H]3c4[nH]c5cc(OC)ccc5c4CCN3C[C@H]2C[C@@H](OC(=O)c2cc(OC)c(OC)c(OC)c2)[C@@H]1OC	True
FC(F)=CCl	False
C=CCc1ccc(O)c(OC)c1	False
COC(=O)C1(S(=O)(=O)c2ccc(Cl)cc2)CCC1	True
